system: Human alphaherpesvirus 1; assay: Antiviral activity against herpes simplex virus-1 VR-3 strain in HEL ([…]) cells.; assay type: functional; conditions: Human alphaherpesvirus 1, HEL; read-out: ED50 (the source's name)
Values of EC50 strictly less than 0.5 µg/mL map to TRUE, and values of at least 0.5 µg/mL map to FALSE.

SMILES_REPRESENTATION: Cc1cn([C@@H]2S[C@H](CO)[C@@H](O)[C@@H]2O)c(=O)[nH]c1=O
GROUP: FALSE
--
SMILES_REPRESENTATION: Nc1nc2c(ncn2COC(CO)CO)c(=O)[nH]1
GROUP: TRUE
--
SMILES_REPRESENTATION: Nc1ncnc2c1ncn2[C@H]1S[C@H](CO)[C@@H](O)[C@@H]1O
GROUP: FALSE
--
SMILES_REPRESENTATION: O=c1[nH]c(=O)n([C@H]2S[C@H](CO)[C@@H](O)[C@@H]2O)cc1/C=C/Cl
GROUP: FALSE
--
SMILES_REPRESENTATION: CCc1cn([C@@H]2S[C@H](CO)[C@@H](O)[C@@H]2O)c(=O)[nH]c1=O
GROUP: TRUE
--
SMILES_REPRESENTATION: Nc1nc2c(ncn2COCCO)c(=O)[nH]1
GROUP: TRUE
--
SMILES_REPRESENTATION: Nc1ncnc2c1ncn2[C@@H]1S[C@H](CO)[C@@H](O)[C@@H]1O
GROUP: FALSE
--
SMILES_REPRESENTATION: O=c1[nH]c(=O)n([C@@H]2S[C@H](CO)[C@@H](O)[C@@H]2O)cc1I
GROUP: FALSE

----------
Measured IC50 of individual entries
test system: CCRF-HSB-2; experiment: Antiproliferative effects on CCRF-HSB-2 (human leukemia) cells.; type: functional, cell-based

SMILES_REPRESENTATION: O=c1[nH]c(=O)n([C@@H]2O[C@H](CO)[C@@H](O)[C@@H]2O)cc1/C=C/Br
IC50: > 100 µg/mL
--
SMILES_REPRESENTATION: Cc1cn([C@@H]2S[C@H](CO)[C@@H](O)[C@@H]2O)c(=O)[nH]c1=O
IC50: > 100 µg/mL
--
SMILES_REPRESENTATION: O=c1[nH]c(=O)n([C@H]2S[C@H](CO)[C@@H](O)[C@@H]2O)cc1I
IC50: > 100 µg/mL
--
SMILES_REPRESENTATION: Nc1nc(N)c2ncn([C@H]3S[C@H](CO)[C@@H](O)[C@@H]3O)c2n1
IC50: > 100 µg/mL
--
SMILES_REPRESENTATION: Nc1ncnc2c1ncn2[C@@H]1S[C@H](CO)[C@@H](O)[C@@H]1O
IC50: 14.8 µg/mL
